molecular target: human orexin 1 receptor (Homo sapiens (Human), UniProt O43613); experiment: Human orexin 1 receptor radioligand binding ([3H]-SB674042 competition); conditions: CHO cells stably expressing human orexin 1 receptor; [3H]-SB674042 4 nM final; read-out: OR-1 Ki
Sequence (O43613 whole entry): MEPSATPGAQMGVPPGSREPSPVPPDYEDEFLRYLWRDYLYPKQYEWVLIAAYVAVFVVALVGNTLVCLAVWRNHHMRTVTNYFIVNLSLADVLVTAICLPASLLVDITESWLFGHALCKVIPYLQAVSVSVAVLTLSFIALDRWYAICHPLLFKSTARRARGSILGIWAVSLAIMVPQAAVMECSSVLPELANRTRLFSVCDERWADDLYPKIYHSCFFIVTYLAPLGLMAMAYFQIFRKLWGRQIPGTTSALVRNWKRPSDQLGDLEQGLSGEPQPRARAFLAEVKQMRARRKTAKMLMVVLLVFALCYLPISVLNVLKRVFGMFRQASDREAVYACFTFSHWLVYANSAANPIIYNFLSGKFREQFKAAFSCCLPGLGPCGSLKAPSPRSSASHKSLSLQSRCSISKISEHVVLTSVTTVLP
pKi: −log10 of the molar value.
quantity name: pKi

Recorded pKi, per entry:
molecule | pKi
Cc1ccc(-n2nccn2)c(C(=O)N2CC3CN(c4nccc(-c5ccccc5)n4)C3C2)c1 (stereo not shown) | 6.89
Cc1ccnc(N2CC3CN(C(=O)c4ccccc4-c4ccccc4)CC32)n1 (stereo not shown) | 5.00

A = O=C(c1ccccc1-c1ccccc1)N1CC2CN(c3nccc(-c4ccccc4)n3)C2C1 (stereo not shown)
B = Cc1cc(C)nc(N2C[C@@H]3CCN(C(=O)c4c(C)noc4-c4cc(C)on4)C[C@@H]32)n1
# return whichever of A and B has the smaller pKi Refer to your chosen entry by its label in the reply. B

----------
molecular target: human orexin 1 receptor (Homo sapiens (Human), UniProt O43613); assay: Human orexin 1 receptor radioligand binding ([3H]-SB674042 competition); details: CHO cells stably expressing human orexin 1 receptor; [3H]-SB674042 4 nM final; read-out: OR-1 Ki
quantity name: Ki (µM)

molecule | Ki [µM]
O=C(c1ccccc1-c1cccs1)N1CC2CN(c3cnc4ccccc4n3)C2C1 (stereo not shown) | 0.114
Cc1cnc(-n2nccn2)c(C(=O)N2CC[C@H]3CN(c4nc(C)cc(C)n4)[C@H]3C2)c1 | 6
Cc1cc(C)nc(N2C[C@@H]3CCN(C(=O)c4ccc(C(F)(F)F)nc4-n4ccnn4)C[C@@H]32)n1 | 10

1 = CNc1nc(C)cc(N2C[C@@H]3CCN(C(=O)c4cc(F)ccc4-n4nccn4)C[C@@H]32)n1
2 = O=C(c1ccccc1-n1nccn1)N1CC[C@H]2CN(c3cnc4ccccc4n3)[C@H]2C1
3 = Cc1cc(N2C[C@@H]3CCN(C(=O)c4ccc(F)cc4-n4nccn4)C[C@@H]32)nc(C(F)(F)F)n1
4 = Cc1cc(C)nc(N2C[C@@H]3CCN(C(=O)c4ccccc4-n4nccn4)C[C@@H]32)n1
Sort these molecules on Ki so the largest reading comes first. Record the ranking as a list of labels in the requested order. 1, 3, 4, 2
(1: 10 µM, 3: 1.04 µM, 4: 0.416 µM, 2: 0.032 µM)

----------
target: human orexin-2 receptor (Homo sapiens (Human)); assay: Human orexin 2 receptor radioligand binding ([3H]-EMPA competition); details: HEK293 cells stably expressing human orexin-2 receptor; [3H]-EMPA 5 nM final; read-out: OR-2 Ki
Sequence (O43614 whole entry): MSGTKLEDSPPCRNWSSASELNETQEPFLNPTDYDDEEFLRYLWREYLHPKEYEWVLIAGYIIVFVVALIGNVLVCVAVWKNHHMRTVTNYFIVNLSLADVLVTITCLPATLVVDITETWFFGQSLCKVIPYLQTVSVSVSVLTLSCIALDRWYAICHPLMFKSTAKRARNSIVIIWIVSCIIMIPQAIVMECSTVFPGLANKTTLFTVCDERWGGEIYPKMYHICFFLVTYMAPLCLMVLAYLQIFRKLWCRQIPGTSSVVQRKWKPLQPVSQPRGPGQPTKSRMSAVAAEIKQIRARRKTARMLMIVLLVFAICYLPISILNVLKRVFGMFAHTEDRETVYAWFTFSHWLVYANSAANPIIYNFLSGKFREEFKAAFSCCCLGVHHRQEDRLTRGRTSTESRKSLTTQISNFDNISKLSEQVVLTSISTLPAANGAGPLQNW
quantity name: Ki (nM)

Recorded Ki, per entry:
compound | Ki, nM
Cc1cnc(C)c(N2C[C@@H]3CCN(C(=O)c4c(F)cccc4-n4nccn4)C[C@@H]32)n1 [Example 98] | 274
Cc1cc(C)nc(N2C[C@@H]3CCN(C(=O)c4cc(F)ccc4-c4ccc(N(C)C)nc4)C[C@@H]32)n1 [Example 166] | 72

a = Cc1cc(C)nc(N2C[C@@H]3CCN(C(=O)c4c(C)noc4-c4snnc4C)C[C@@H]32)n1 [Example 180]
b = O=C(c1cc(F)ccc1-n1nccn1)N1CC[C@H]2CN(c3cnnc(Cl)c3)[C@H]2C1 [Example 87]
c = Cc1cc(C)nc(N2C[C@@H]3CCN(C(=O)c4cccc(F)c4-c4ncccn4)C[C@@H]32)c1 [Example 153]
d = Cc1cc(C)nc(N2C[C@@H]3CCN(C(=O)c4cc(F)ccc4Br)C[C@@H]32)n1 [Example 164]
e = Cc1cc(C)nc(N2C[C@@H]3CCN(C(=O)c4cc(F)ccc4-c4ncccn4)C[C@@H]32)n1 [Example 23]
Please list these in order of increasing Ki. Thank you! Record the ranking as a list of labels in the requested order. e, c, d, b, a
(e: 20 nM, c: 82 nM, d: 190 nM, b: 1400 nM, a: 6500 nM)

The reported measurements were obtained from patent US8680275B2.
